Data credit: ChEMBL document CHEMBL1156213

Hi! I'm sharing some pIC50 results obtained with Epidermal growth factor receptor (Homo sapiens, UniProt P00533, L858R).
Sequence (P00533 25-1210 L858R limits assumed): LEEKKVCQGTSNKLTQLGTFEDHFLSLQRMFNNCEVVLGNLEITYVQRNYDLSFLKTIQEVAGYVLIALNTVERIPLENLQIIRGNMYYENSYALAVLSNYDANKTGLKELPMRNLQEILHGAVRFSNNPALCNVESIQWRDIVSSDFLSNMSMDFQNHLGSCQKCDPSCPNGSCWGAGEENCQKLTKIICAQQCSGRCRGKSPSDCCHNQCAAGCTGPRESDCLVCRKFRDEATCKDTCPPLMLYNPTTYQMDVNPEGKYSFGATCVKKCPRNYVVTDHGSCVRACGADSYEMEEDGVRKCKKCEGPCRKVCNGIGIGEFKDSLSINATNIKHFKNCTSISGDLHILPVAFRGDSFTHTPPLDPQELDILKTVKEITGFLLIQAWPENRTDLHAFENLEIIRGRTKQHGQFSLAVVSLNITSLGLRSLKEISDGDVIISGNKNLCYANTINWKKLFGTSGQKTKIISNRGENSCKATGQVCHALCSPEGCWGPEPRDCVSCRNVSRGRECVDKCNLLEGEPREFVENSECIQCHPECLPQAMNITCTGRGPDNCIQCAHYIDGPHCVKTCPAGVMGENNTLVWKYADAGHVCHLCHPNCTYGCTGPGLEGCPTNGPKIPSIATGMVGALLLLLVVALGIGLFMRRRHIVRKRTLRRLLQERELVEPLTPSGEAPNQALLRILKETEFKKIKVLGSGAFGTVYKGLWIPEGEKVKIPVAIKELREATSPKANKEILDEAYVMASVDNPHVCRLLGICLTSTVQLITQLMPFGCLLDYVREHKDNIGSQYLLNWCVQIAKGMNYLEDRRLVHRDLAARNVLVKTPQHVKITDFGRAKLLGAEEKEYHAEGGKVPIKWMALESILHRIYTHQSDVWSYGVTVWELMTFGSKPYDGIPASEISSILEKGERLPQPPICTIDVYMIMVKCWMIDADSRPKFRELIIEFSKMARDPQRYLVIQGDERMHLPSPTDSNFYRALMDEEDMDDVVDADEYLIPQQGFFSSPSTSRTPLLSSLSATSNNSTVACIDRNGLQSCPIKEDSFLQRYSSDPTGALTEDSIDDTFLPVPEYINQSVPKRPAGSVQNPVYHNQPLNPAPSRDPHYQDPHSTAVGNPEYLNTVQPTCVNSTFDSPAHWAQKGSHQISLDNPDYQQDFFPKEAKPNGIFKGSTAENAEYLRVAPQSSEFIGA
pIC50: −log10 of the molar value.
RECORDED_METRIC: pIC50

>>> measured_number("O=C(Nc1ccccc1)Nc1cccc(-c2nc3sccn3c2-c2ccnc(Nc3ccc(N4CCOCC4)cc3)n2)c1")
7.00
>>> measured_number("O=C(Cc1ccccc1)Nc1cccc(-c2nc3sccn3c2-c2ccnc(Nc3ccc4c(c3)CCNC4)n2)c1")
8.19
>>> measured_number("O=C(CC1CCCC1)Nc1cccc(-c2nc3sccn3c2-c2ccnc(Nc3ccc(N4CCOCC4)cc3)n2)c1")
6.18
>>> measured_number("O=C(Nc1cccc(-c2nc3sccn3c2-c2ccnc(Nc3cccc(N4CCOCC4)c3)n2)c1)c1c(F)cccc1F")
8.21
>>> measured_number("O=C(Nc1cccc(-c2nc3sccn3c2-c2ccnc(Nc3ccc4c(c3)CCNC4)n2)c1)c1c(F)cccc1F")
8.64
>>> measured_number("O=C(Nc1cccc(-c2nc3sccn3c2-c2ccnc(Nc3ccccc3)n2)c1)c1ccccc1")
7.26
>>> measured_number("CCN1CCN(c2ccc(Nc3nccc(-c4c(-c5cccc(NC(=O)c6c(F)cccc6F)c5)nc5sccn45)n3)cc2)CC1")
9.02
>>> measured_number("O=C(CC1CCCCC1)Nc1cccc(-c2nc3sccn3c2-c2ccnc(Nc3ccc(N4CCOCC4)cc3)n2)c1")
6.06
>>> measured_number("O=C(Nc1cccc(-c2nc3sccn3c2-c2ccnc(Nc3ccc(N4CCOCC4)cc3)n2)c1)c1ccccc1")
8.10
>>> measured_number("CN1CCc2cc(Nc3nccc(-c4c(-c5cccc(NC(=O)Cc6ccccc6)c5)nc5sccn45)n3)ccc2C1")
7.24
>>> measured_number("O=C(Nc1cccc(-c2nc3sccn3c2-c2ccnc(Nc3ccc(N4CCOCC4)cc3)n2)c1)c1c(F)cccc1F")
8.72

###

pIC50 by entry:
# MEASURED_ON: Receptor tyrosine-protein kinase erbB-2 (Homo sapiens)
# Sequence (P04626 whole entry): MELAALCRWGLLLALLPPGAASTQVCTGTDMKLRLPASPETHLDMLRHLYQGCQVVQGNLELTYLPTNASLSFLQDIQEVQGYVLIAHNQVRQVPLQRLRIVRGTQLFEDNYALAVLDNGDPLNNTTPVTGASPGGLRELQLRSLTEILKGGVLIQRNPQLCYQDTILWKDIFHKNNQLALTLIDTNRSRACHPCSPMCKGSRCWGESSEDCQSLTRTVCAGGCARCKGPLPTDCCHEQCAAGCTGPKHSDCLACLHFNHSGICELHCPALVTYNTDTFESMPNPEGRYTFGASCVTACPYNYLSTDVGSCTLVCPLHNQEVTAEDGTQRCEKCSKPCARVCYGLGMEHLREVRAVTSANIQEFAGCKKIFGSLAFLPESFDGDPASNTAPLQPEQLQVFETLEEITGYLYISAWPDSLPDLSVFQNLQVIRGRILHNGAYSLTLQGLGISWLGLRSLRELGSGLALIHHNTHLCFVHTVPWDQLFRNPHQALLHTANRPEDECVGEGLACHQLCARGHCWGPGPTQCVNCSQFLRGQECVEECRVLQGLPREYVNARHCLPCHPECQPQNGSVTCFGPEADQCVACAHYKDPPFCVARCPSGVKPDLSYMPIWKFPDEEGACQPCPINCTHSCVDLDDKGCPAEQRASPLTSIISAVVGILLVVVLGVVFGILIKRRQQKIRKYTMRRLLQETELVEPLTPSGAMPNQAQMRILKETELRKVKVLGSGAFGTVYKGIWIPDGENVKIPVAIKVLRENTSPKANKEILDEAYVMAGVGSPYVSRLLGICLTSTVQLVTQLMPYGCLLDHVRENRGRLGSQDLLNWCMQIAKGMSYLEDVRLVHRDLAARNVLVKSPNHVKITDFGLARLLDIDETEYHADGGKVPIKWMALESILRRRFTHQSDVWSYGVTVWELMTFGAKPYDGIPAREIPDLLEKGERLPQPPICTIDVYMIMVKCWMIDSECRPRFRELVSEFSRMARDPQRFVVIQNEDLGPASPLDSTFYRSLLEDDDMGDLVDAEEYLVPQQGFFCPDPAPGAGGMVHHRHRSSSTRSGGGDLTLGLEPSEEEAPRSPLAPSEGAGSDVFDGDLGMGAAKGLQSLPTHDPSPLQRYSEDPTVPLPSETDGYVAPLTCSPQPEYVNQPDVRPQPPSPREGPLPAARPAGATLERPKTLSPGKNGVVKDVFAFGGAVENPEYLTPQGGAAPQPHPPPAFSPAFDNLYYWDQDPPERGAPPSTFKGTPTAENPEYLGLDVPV
# TEST_METHOD_NOTES: Inhibition of ErbB2 intracellular phosphorylation in human N87 cells by ELISA
pIC50: −log10 of the molar value.
RECORDED_METRIC: pIC50

>>> measured_number("CCN1CCN(c2ccc(Nc3nccc(-c4c(-c5cccc(NC(=O)Cc6ccccc6)c5)nc5sccn45)n3)cc2)CC1")
6.51
>>> measured_number("CN(C)CCc1ccc(Nc2nccc(-c3c(-c4cccc(NC(=O)c5c(F)cccc5F)c4)nc4sccn34)n2)cc1")
7.57
>>> measured_number("O=C(Cc1ccccc1)Nc1cccc(-c2nc3sccn3c2-c2ccnc(Nc3ccc4c(c3)CCNC4)n2)c1")
6.92
>>> measured_number("CCN1CCN(c2ccc(Nc3nccc(-c4c(-c5cccc(NC(=O)c6c(F)cccc6F)c5)nc5sccn45)n3)cc2)CC1")
7.16

###

pIC50 by entry:
# MEASURED_ON: Insulin-like growth factor 1 receptor (Homo sapiens, UniProt P08069)
# Sequence (P08069 31-736 limits assumed): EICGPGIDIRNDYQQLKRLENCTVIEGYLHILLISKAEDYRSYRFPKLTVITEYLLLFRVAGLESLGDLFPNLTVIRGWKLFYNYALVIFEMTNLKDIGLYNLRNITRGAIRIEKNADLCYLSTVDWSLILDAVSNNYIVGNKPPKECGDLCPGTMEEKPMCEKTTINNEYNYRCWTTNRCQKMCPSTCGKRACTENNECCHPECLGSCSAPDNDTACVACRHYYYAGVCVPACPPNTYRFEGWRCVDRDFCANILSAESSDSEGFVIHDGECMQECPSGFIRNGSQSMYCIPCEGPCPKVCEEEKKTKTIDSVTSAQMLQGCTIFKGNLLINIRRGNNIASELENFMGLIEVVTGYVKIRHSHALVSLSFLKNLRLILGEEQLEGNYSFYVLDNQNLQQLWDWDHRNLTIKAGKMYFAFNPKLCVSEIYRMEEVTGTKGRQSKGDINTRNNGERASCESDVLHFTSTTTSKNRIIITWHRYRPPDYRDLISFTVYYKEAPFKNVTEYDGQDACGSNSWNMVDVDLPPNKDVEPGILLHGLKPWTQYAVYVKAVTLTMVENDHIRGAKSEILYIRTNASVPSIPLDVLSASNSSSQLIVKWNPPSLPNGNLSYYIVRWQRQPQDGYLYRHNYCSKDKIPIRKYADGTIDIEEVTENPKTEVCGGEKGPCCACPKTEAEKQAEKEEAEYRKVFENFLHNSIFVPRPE
# Sequence (P08069 741-1367 limits assumed): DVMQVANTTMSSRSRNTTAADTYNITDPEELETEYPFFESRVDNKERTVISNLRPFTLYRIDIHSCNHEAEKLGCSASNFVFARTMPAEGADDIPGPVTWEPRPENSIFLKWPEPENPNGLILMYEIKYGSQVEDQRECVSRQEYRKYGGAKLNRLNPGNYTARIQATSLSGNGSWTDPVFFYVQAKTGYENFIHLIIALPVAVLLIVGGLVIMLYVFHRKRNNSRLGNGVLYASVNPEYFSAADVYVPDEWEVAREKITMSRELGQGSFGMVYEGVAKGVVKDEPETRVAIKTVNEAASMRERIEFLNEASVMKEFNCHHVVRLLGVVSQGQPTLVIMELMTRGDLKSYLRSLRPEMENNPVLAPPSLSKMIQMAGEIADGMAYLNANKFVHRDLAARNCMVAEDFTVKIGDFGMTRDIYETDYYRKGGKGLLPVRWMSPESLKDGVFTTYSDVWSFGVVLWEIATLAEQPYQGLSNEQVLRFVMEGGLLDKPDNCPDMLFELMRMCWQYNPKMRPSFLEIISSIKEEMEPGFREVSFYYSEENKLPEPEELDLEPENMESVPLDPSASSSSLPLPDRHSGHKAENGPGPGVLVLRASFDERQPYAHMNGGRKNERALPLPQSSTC
# TEST_METHOD_NOTES: Inhibition of IGF1R intracellular phosphorylation in human A431 cells by ELISA
# Assay type: cell-based, A-431
pIC50: −log10 of the molar value.
RECORDED_METRIC: pIC50

>>> measured_number("O=C(Cc1ccccc1)Nc1cccc(-c2nc3sccn3c2-c2ccnc(Nc3ccc4c(c3)CCNC4)n2)c1")
6.74
>>> measured_number("CN(C)CCc1ccc(Nc2nccc(-c3c(-c4cccc(NC(=O)c5c(F)cccc5F)c4)nc4sccn34)n2)cc1")
6.48
>>> measured_number("CCN1CCN(c2ccc(Nc3nccc(-c4c(-c5cccc(NC(=O)c6c(F)cccc6F)c5)nc5sccn45)n3)cc2)CC1")
6.70
>>> measured_number("CCN1CCN(c2ccc(Nc3nccc(-c4c(-c5cccc(NC(=O)Cc6ccccc6)c5)nc5sccn45)n3)cc2)CC1")
7.39
